target-of-assay: Cholinesterase (Homo sapiens)
Sequence (P06276 whole entry): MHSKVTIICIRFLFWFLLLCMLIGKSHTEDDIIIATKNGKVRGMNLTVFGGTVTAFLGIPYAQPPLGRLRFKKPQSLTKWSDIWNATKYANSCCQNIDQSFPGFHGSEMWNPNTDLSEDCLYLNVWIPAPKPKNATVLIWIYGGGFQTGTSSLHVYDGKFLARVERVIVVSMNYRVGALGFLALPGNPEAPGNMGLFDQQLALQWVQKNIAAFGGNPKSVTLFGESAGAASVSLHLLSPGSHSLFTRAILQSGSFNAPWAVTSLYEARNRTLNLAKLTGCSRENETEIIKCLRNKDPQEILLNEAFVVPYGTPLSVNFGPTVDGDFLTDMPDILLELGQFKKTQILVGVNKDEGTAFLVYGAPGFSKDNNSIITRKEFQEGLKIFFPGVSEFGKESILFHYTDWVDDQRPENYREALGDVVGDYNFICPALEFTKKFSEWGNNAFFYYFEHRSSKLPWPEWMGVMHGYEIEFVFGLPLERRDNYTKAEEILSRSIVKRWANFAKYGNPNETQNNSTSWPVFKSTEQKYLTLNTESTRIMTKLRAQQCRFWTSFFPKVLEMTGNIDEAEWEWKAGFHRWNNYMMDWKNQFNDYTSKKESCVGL
experiment-description: Inhibition of human serum BuChE using butyrylthiocholine as substrate preincubated for 5 mins followed by substrate addition measured for 5 mins by Ellman's method
Record form. Attribute: pIC50. Fill in for each entry.
Please keep in mind that pIC50 is minus log10 of the molar concentration; only the number is needed.

// query Answer with the recorded pIC50 of COc1cc(/C=C/C(=O)NCCC2CCN(Cc3ccccc3)CC2)ccc1O only.
// result 7.12

// query Answer with the recorded pIC50 of COc1cc(/C=C/C(=O)Nc2cccc(CN(C)Cc3ccccc3)c2)ccc1O only.
// result 5.23

// query Answer with the recorded pIC50 of COc1ccc(/C=C/C(=O)NCCC2CCN(Cc3ccccc3)CC2)c(OC)c1 only.
// result 5.36

// query Answer with the recorded pIC50 of COc1cccc(/C=C/C(=O)NCCC2CCN(Cc3ccccc3)CC2)c1 only.
// result 6.01

// query Answer with the recorded pIC50 of COc1ccc(/C=C/C(=O)NCCC2CCN(Cc3ccccc3)CC2)cc1OC only.
// result 6.16
